Tested on: SW480 cells
Assay: MTT cytotoxicity assay, SW480
Type: cell-based, human
Details: Homo sapiens, SW480, 72 h, read-out: IC50 SW480
Give IC50 for every item shown.
Entry rule: numbers only, all in µM.

Please indicate IC50 recorded for COc1cc(-c2nc3ccc(C(=O)Nc4ccc([N+](=O)[O-])cc4Cl)cc3[nH]2)cc(OC)c1OC [Compound 5i]
20.2

Look up and state reported IC50 for COc1ccc(NC(=O)c2ccc3nc(-c4cc(OC)c(OC)c(OC)c4)[nH]c3c2)c(OC)c1 [Compound 5o]
3.68

Tell me measured IC50 for COc1cc([C@@H]2c3cc4c(cc3[C@@H](O[C@@H]3O[C@@H]5CO[C@@H](C)O[C@H]5[C@H](O)[C@H]3O)[C@H]3COC(=O)[C@H]23)OCO4)cc(OC)c1O [Etoposide, reference compound] please.
16.6

Give recorded IC50. COc1cc(-c2nc3ccc(C(=O)NCc4ccccc4)cc3[nH]2)cc(OC)c1OC [Compound 5c]
34.8

Return reported IC50. Input compound: COc1cc(-c2nc3ccc(C(=O)NCC(C)C)cc3[nH]2)cc(OC)c1OC [Compound 5b]
18.8

Please report the measured IC50 for COc1cc(-c2nc3ccc(C(=O)NCCc4ccccc4)cc3[nH]2)cc(OC)c1OC [Compound 5d]
18.2

Fill in IC50 for record COc1cc(-c2nc3ccc(C(=O)Nc4ccccc4C)cc3[nH]2)cc(OC)c1OC [Compound 5l]
9.31

---

Tested on: A549 cells
Assay: MTT cytotoxicity assay, A549
Assay type: cell-based, human
Settings: Homo sapiens, A549, 72 h, read-out: IC50 A549
parameter: pIC50
A value of pIC50 is the negative decimal logarithm of a concentration given in moles per litre.

Look up and report measured pIC50 for this entry: `COc1cc(-c2nc3ccc(C(=O)Nc4ccc(Br)cc4)cc3[nH]2)cc(OC)c1OC`
4.88

Supply pIC50 value. Item: COc1cccc2c1C(=O)c1c(O)c3c(c(O)c1C2=O)C[C@@](O)(C(=O)CO)C[C@@H]3O[C@H]1C[C@H](N)[C@H](O)[C@H](C)O1 [Doxorubicin, reference compound]
6.34

Please give measured pIC50 of the following entry: `CCCCNC(=O)c1ccc2nc(-c3cc(OC)c(OC)c(OC)c3)[nH]c2c1`
4.61

Item `COc1cc(-c2nc3ccc(C(=O)Nc4ccccc4F)cc3[nH]2)cc(OC)c1OC` : provide pIC50
6.17

Write down pIC50 measured for item `COc1cc(-c2nc3ccc(C(=O)Nc4ccc(C)cc4)cc3[nH]2)cc(OC)c1OC`
6.28

Given `COc1cc(-c2nc3ccc(C(=O)NCCc4ccccc4)cc3[nH]2)cc(OC)c1OC` , respond with its pIC50.
6.18

Input COc1cc([C@@H]2c3cc4c(cc3[C@@H](O[C@@H]3O[C@@H]5CO[C@@H](C)O[C@H]5[C@H](O)[C@H]3O)[C@H]3COC(=O)[C@H]23)OCO4)cc(OC)c1O [Etoposide, reference compound] , output reported pIC50.
5.03

Assign pIC50 to the following record: `COc1cc(-c2nc3ccc(C(=O)Nc4ccc(C)cc4C)cc3[nH]2)cc(OC)c1OC`
5.86

Give the reported pIC50 for this molecule. `COc1ccc(NC(=O)c2ccc3nc(-c4cc(OC)c(OC)c(OC)c4)[nH]c3c2)c(OC)c1`
6.82

Kindly indicate its recorded pIC50. Item: `COc1cc(-c2nc3ccc(C(=O)NCc4ccccc4)cc3[nH]2)cc(OC)c1OC`
4.79

For the molecule `COc1cc(-c2nc3ccc(C(=O)Nc4ccc([N+](=O)[O-])cc4Cl)cc3[nH]2)cc(OC)c1OC` , give its reported pIC50.
5.24

Retrieve pIC50 measured for `COc1cc(-c2nc3ccc(C(=O)Nc4ccccc4C)cc3[nH]2)cc(OC)c1OC` and print it.
6.04

Identify measured pIC50 corresponding to `COc1cc(-c2nc3ccc(C(=O)Nc4ccccc4Cl)cc3[nH]2)cc(OC)c1OC`
4.76

Consider the molecule `COc1cc(-c2nc3ccc(C(=O)Nc4cccc([N+](=O)[O-])c4)cc3[nH]2)cc(OC)c1OC` and give its recorded pIC50.
4.84

Determine its reported pIC50: `COc1cc(-c2nc3ccc(C(=O)Nc4ccccc4)cc3[nH]2)cc(OC)c1OC`
6.64

Read off the recorded pIC50 for `COc1cc(-c2nc3ccc(C(=O)Nc4cccc(Cl)c4)cc3[nH]2)cc(OC)c1OC`
4.56

Write down pIC50 measured for item `COc1cc(-c2nc3ccc(C(=O)NCC(C)C)cc3[nH]2)cc(OC)c1OC`
6.09
